Data origin, for the record: ChEMBL document CHEMBL2010738

Study System: Sphingosine 1-phosphate receptor 3 (Homo sapiens)
Sequence (Q99500 whole entry): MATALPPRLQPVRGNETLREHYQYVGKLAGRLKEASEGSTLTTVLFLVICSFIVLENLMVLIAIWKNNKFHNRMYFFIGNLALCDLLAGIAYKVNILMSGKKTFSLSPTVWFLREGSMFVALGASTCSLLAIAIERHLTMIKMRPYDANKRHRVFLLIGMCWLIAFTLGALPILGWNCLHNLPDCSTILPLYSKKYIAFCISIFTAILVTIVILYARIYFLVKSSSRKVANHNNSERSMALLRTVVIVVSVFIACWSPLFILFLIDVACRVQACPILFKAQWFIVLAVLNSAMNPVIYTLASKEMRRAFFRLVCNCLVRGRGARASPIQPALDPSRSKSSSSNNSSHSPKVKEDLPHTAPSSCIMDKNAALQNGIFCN
Test Details: Agonist activity at human S1P3R expressed in HEK293T cells by Ca(2+) mobilization assay
pEC50: −log10 of the molar value.
pEC50 values for the compounds below.

The cases that follow already have their pEC50 on record.
>>> recorded_measurement("CCCCN(C(=O)c1ccccc1)c1nnc(-c2cccnc2)s1")
"< 5.00"
>>> recorded_measurement("CCCCN(C(=O)c1ccc(C(F)(F)F)cc1)c1nnc(-c2cccc3c2ccn3C)s1")
"< 5.50"

(Q) Request the reported pEC50 associated with `CCCCN(C(=O)Nc1ccc(Cl)cc1)c1nnc(-c2cccnc2)s1`
(A) < 5.00

(Q) Give the measured pEC50 of `CCCCN(C(=O)c1ccc(C(F)(F)F)cc1)c1nnc(-c2ccc3c(c2)CNC3)s1` .
(A) < 5.50

(Q) Please report the recorded pEC50 for `CCCCN(C(=O)c1cccc(Cl)c1)c1nnc(-c2cccnc2)s1` .
(A) < 5.00
